protocol: MELAS cybrid and Rieske KO viability enhancers – cell-based, MELAS cybrids, Rieske KO mouse fibroblasts, CellTiter-Glo, primary screen (AID 1508586);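 further: z relative to plate mean and SD of compound and empty wells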
settings: MELAS cybrid survival, low glucose, CellTiter-Glo 48 h
Activity calls are given as the source filed them.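 How the source made its calls: active means mean z-score across replicates of 1.96 or higher in either the MELAS or the Rieske mutant cell line; inactive means the rest.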
Output constraint: value belongs to active, inactive

Example entries and their recorded answers appear below.
[
  {
    "compound": "CC(=O)[C@]1(O)Cc2c(O)c3c(c(O)c2C(OC2CC(N)C(O)C(C)O2)C1)C(=O)c1ccccc1C3=O (some centres not stated)",
    "assigned.label": "active"
  },
  {
    "compound": "C[C@]12C=CC(=O)C=C1CC[C@@H]1[C@H]2C(O)C[C@@]2(C)[C@H]1CC[C@@]2(O)C(=O)CO (some centres not stated)",
    "assigned.label": "inactive"
  },
  {
    "compound": "C[N+]1(C)[C@@H]2CC(OC(=O)C(CO)c3ccccc3)C[C@H]1[C@@H]1O[C@@H]12 (some centres not stated)",
    "assigned.label": "inactive"
  },
  {
    "compound": "O=C(Oc1cc(S(=O)(=O)c2ccccc2)ccc1[N+](=O)[O-])c1ccc(Cl)cc1",
    "assigned.label": "inactive"
  },
  {
    "compound": "CC(C)(N)c1cn(C2CCN(c3nc(N)nc4nc[nH]c34)CC2)nn1",
    "assigned.label": "inactive"
  },
  {
    "compound": "O=C(Nc1c[nH]c2ccccc12)c1cccnc1",
    "assigned.label": "inactive"
  },
  {
    "compound": "Cc1cccc(CN2CCN(c3ncnc4sccc34)CC2=O)c1",
    "assigned.label": "inactive"
  },
  {
    "compound": "O=C(O)CCCNC(=O)NC1CCCCC1",
    "assigned.label": "inactive"
  }
]

Recorded test call requested for C[N+]1(C)[C@@H]2CC(OC(=O)C(O)(c3cccs3)c3cccs3)C[C@H]1C1OC12 (some centres not stated)
inactive

Recorded call for O=C1NCCN1c1ncc([N+](=O)[O-])s1 ?
inactive

Any idea what this test logged for CC(C)CCNC(=O)C(CC(C)C)NC(=O)C1OC1C(=O)O (configuration not stated) ?
inactive

State the result this test recorded for Cc1nc(C)c(-c2ccnc(N)n2)s1 .
inactive

Short answer needed: outcome of this test for O=C(Nc1cccc(-c2nn[nH]n2)c1)c1cccc(F)c1 ?
inactive

What did this assay record as the result for CCc1nc(NC(=O)N(C)CC2Cc3ccccc3O2)nn1C (configuration not stated) ?
inactive

Name the outcome recorded for CC(C)N1C(=O)N(C)C2(CCN(Cc3ccc4c(c3)Cc3ccccc3-4)CC2)C1=O in the assay.
inactive

Please indicate how the test categorized O=C(CCCCCCC(=O)Nc1ccc(C2OC(CSc3nc(-c4ccccc4)c(-c4ccccc4)o3)CC(c3ccc(CO)cc3)O2)cc1)NO (configuration not stated) .
inactive

Please share the test call associated with O=C1O[C@H](C(O)CO)C(O)C1O (some centres not stated) .
inactive

Hi team, can someone confirm the assay call for CCCCS(=O)(=O)CCC(=O)O ?
inactive

Dear all, I need the recorded test outcome for CN1CCN(Cc2cccc(Oc3ccccc3)c2)CC1CCO (configuration not stated) , thank you.
inactive

Tell me the assay call for CC(C)CCNc1cc(C(=O)NCCCn2ccnc2)cc(S(=O)(=O)N2CCCC2)c1 please.
inactive

Fill in: this test's call for CCNc1ncc(-c2cc(C(=O)N(C)CCN(C)C)c3cc(F)ccc3n2)cn1 is ___
inactive

====

What z-score was measured for each of the following?
protocol: MELAS cybrid and Rieske KO viability enhancers – cell-based, MELAS cybrids, Rieske KO mouse fibroblasts, CellTiter-Glo, primary screen (AID 1508586);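 further: z relative to plate mean and SD of compound and empty wells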
settings: Rieske KO mouse fibroblast survival, low glucose, CellTiter-Glo 72 h
Give bare numbers.

// known answers, use as guide
[
  {
    "compound.string": "Cc1cc(NC(=O)Cn2ccc(-c3ncnn3C)n2)n(C2CCCCC2)n1",
    "reading": -0.435
  },
  {
    "compound.string": "COc1ccc(CCC(=O)O)cc1OC",
    "reading": -0.44
  },
  {
    "compound.string": "O=c1ccc2ccccc2[nH]1",
    "reading": 0.0217
  }
]

I have 4 molecules here; please give me z-score for each one.
1. N#Cc1cc(CN2CCC(Nc3ncnc4sc(Cl)cc34)CC2)ccc1F
2. Nc1ncccc1OCc1ccccc1
3. O=C1N[C@H](CO)C(=O)N2CCN(C(=O)c3ccc(F)cc3)C[C@H]12
4. Cc1[nH]c2ccccc2c1CCNC(=O)c1cccs1

1: -0.555; 2: -0.912; 3: -0.948; 4: 0.75

====

protocol: drug combination growth inhibition, ovarian cancer – cell-based, oncology-focused library, rucaparib conditional, profiling panel (AID 1508598)
settings: patient-derived ovarian cancer cells, CellTiter-Glo viability, 144 h; at 5 µM; OCI-P5x cells; with rucaparib 20 µM; 100% = cells with rucaparib alone
Calls of active or inactive are those of the source.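 The calls were made as follows: active = normalized viability below 100% at a tested concentration; inactive = the rest.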 Where a SMILES comes first, the peptide text is derived from it. The star is where a group is joined. Cbz = O=C(OCc1ccccc1)*; CH2F = FC*
I would appreciate it if you answered using one of these outcomes: active, inactive

[
  {
    "molecule": "COC(=O)C[C@H](NC(=O)[C@H](C)NC(=O)[C@@H](NC(=O)OCc1ccccc1)C(C)C)C(=O)CF (Cbz-Val-Ala-Asp(OMe)-CH2F)",
    "assigned.label": "inactive"
  }
]

Answer briefly: the call reported for COc1cc([C@H]2c3cc4c(cc3[C@@H](O[C@@H]3O[C@@H]5CO[C@@H](c6cccs6)O[C@H]5[C@H](O)[C@H]3O)[C@H]3COC(=O)[C@H]23)OCO4)cc(OC)c1O in this assay.
active

Just curious, what result did CC#C[C@@]1(O)CC[C@H]2[C@@H]3CCC4=CC(=O)CCC4=C3[C@H](c3ccc(N(C)C)cc3)C[C@@]21C get here?
active

Call for entry CO[C@H]1C[C@H]2CC[C@@H](C)[C@@](O)(O2)C(=O)C(=O)N2CCCC[C@H]2C(=O)O[C@H]([C@H](C)C[C@@H]2CC[C@H](OC(=O)C(C)(CO)CO)[C@H](OC)C2)CC(=O)[C@H](C)/C=C(\C)[C@@H](O)[C@@H](OC)C(=O)[C@H](C)C[C@H](C)/C=C/C=C/C=C/1C :
active

Tell me the assay call for COc1cc([C@H]2c3cc4c(cc3[C@@H](O[C@@H]3O[C@@H]5CO[C@@H](C)O[C@H]5[C@H](O)[C@@H]3O)[C@H]3COC(=O)[C@H]23)OCO4)cc(OC)c1O please.
active

# lookup: test call for CCOC(=O)c1[nH]c2cc(Cl)ccc2c1C(C(=O)NC(C)(C)C)N(C=O)Cc1ccc(Cl)cc1 (stereo not drawn)
active

Lab log entry: CC[C@]1(O)C[C@@H]2CN(CCc3c([nH]c4ccccc34)[C@@](C(=O)OC)(c3cc4c(cc3OC)N(C=O)[C@@H]3C45CCN4CC=C[C@](CC)([C@H]45)[C@H](OC(C)=O)[C@]3(O)C(=O)OC)C2)C1 (stereo partly drawn) — outcome as called in the assay?
active

Please indicate how the test categorized COc1ccccc1-c1cc(Nc2cccc(CS(N)(=O)=O)c2)ncn1 .
active

Could you check what this test reported for CN(C)CCSSCCNC(=O)C1CCN(C(=O)CSc2ccc(Cl)cc2)CC1 ?
active

Which outcome was assigned to COc1cccc2c1C(=O)c1c(O)c3c(c(O)c1C2=O)C[C@@](O)(C(=O)CO)C[C@H]3O[C@H]1C[C@H](N)[C@H](O)[C@H](C)O1 in this test?
active

====

protocol: MELAS cybrid and Rieske KO viability enhancers – cell-based, MELAS cybrids, Rieske KO mouse fibroblasts, CellTiter-Glo, primary screen (AID 1508586);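 further: z relative to plate mean and SD of compound and empty wells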
settings: MELAS cybrid survival, low glucose, CellTiter-Glo 48 h; stronger effect = higher value
Label T when z-score >= 0.2; otherwise F.

[
  {
    "compound": "COc1cccc2ccc(-c3nnc4ccccn34)nc12",
    "assigned.label": "F"
  },
  {
    "compound": "Cc1nsc(NC(=O)N(C)Cc2cn[nH]c2-c2ccc(F)cc2)n1",
    "assigned.label": "T"
  },
  {
    "compound": "CC1CC(C(=O)O)C2CC[C@]3(C)C(=CC[C@H]4[C@@]5(C)CCC(O)C(C)(C)[C@@H]5CC[C@]43C)[C@H]2C1C (some centres not stated)",
    "assigned.label": "F"
  },
  {
    "compound": "COc1ccc(/C=C/CN2CCc3c(cc(-c4cccc(-n5nc(C)cc5C)c4)c(=O)n3C)C2)cc1",
    "assigned.label": "F"
  },
  {
    "compound": "CC[C@H]1OC(=O)C[C@@H](O)[C@H](C)[C@@H](O[C@@H]2O[C@H](C)[C@@H](O[C@H]3CC(C)(O)[C@@H](O)[C@H](C)O3)[C@H](N(C)C)[C@H]2O)[C@@H](CC=O)C[C@@H](C)C(=O)/C=C/C(C)=C/[C@@H]1CO[C@@H]1O[C@H](C)[C@@H](O)[C@@H](OC)[C@H]1OC (some centres not stated)",
    "assigned.label": "T"
  },
  {
    "compound": "O=C(Oc1ccccc1)N1CCN2C(=O)[C@@H]3C[C@@H](O)CN3C(=O)[C@H]2C1",
    "assigned.label": "T"
  }
]

Kindly determine if z-score recorded for CCC(C(C)O)n1ncn(-c2ccc(N3CCN(c4ccc(OCC5CO[C@@](Cn6cncn6)(c6ccc(F)cc6F)C5)cc4)CC3)cc2)c1=O (some centres not stated) is above or exactly 0.2.
F

Ref: PubChem BioAssay
